Measured viability at 48 h, 20 µM, listed per entry for reference.
- Assay Method Text: Cytotoxicity in mouse BV2 cells assessed as cell viability at 20 uM incubated for 48 hrs by MTT assay (reference value: 100%)
- Type: cell-based, BV-2
- Assay Context: read-out: Activity

// known answers, use as guide
O=C1COCCN1c1ccc(/N=C/c2cn(CCCn3cc(/C=N/c4ccc(N5CCOCC5=O)cc4)c4ccccc43)c3ccccc23)cc1    95.3%
O=C1COCCN1c1ccc(/N=C\c2cn(C(=O)c3ccc(Cl)cc3)c3ccccc23)cc1    99%
O=C1COCCN1c1ccc(/N=C\c2c[nH]c3ccccc23)cc1    104%
O=C1COCCN1c1ccc(/N=C\c2cn(Cc3ccccc3)c3ccccc23)cc1    87.8%
O=C1COCCN1c1ccc(/N=C\c2cn(C(=O)c3ccccc3)c3ccccc23)cc1    85.1%

# viability at 48 h, 20 µM of "Cc1ccc(S(=O)(=O)n2cc(/C=N\c3ccc(N4CCOCC4=O)cc3)c3ccccc32)cc1" = 56.7%

# viability at 48 h, 20 µM of "O=C1COCCN1c1ccc(/N=C\c2cn(Cc3ccc(F)cc3)c3ccccc23)cc1" = 84.2%
